# ASSAY_SYSTEM: T1, Human CD24 (human, UniProt P25063 27-59, limits assumed)
# T1 chain (looked up): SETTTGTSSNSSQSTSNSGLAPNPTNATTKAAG
# TEST_DESCRIPTION: affinity ranking; antibody as ligand, Human CD24 as analyte
QUANTITY_KIND: koff (s⁻¹)
Response body: numeric value in s⁻¹, unit text excluded.

VH + VL (4451 parental variable regions, Table 7) (antibody, V domains shown) VH: EVQLQQSGPELVKPGASVKISCKASGYDFTGYHMNWVKQSPEKSLEWIGEINPITSDKTFNQKFKSKATLTVDRSSSTAYMYLKSLTSEDSAVYYCARRDYGTSLDYWGQGTTLTVSS VL: DVQITQSPSYLAASPGETITIYCRASKSISKYLAWYQEKPEKTNRLLIYAGSTLHSGIPSRFRGSGSGKDFTLTVSGLEPEDFAMYYCQQHNEYPITFGAGTKLELK ... 0.00937
VH2 + VL4 (humanized 4451) (antibody, V domains shown, IgG expressed in HEK293) VH: QVQLVQSGAEVKKPGASVKVSCKASGYDFTGYHMNWVRQAPGQGLEWIGEINPITSDKTFNQKFKSRVTMTVDTSISTAYMELSRLRSDDTAVYYCARRDYGTSLDYWGQGTTVTVSS VL: DIQLTQSPSFLSASVGDRVTIYCRASKSISKYLAWYQQKPGKAPRLLIYAGSTLHSGIPSRFRGSGSGTEFTLTISSLQPEDFATYYCQQHNEYPITFGQGTKLEIK ... 0.0229
VH1 + VL4 (humanized 4451) (antibody, V domains shown, IgG expressed in HEK293) VH: QVQLVQSGAEVKKPGASVKVSCKASGYDFTGYHMNWVRQAPGQGLEWMGEINPITSDKTFNQKFKSRVTMTRDTSISTAYMELSRLRSDDTAVYYCARRDYGTSLDYWGQGTTVTVSS VL: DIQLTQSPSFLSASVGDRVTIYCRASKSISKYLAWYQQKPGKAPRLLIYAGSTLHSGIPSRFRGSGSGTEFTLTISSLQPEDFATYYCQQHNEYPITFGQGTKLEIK ... 0.0241
VH3 + VL3 (humanized 4451) (antibody, V domains shown, IgG expressed in HEK293) VH: QVQLVQSGAEVKKPGASVKVSCKASGYDFTGYHMNWVRQAPGQGLEWIGEINPITSDKTFNQKFKSRATMTVDTSISTAYMELSRLRSDDTAVYYCARRDYGTSLDYWGQGTTVTVSS VL: DIQLTQSPSFLSASVGDRVTITCRASKSISKYLAWYQQKPGKAPKLLIYAGSTLHSGIPSRFRGSGSGTEFTLTISSLQPEDFATYYCQQHNEYPITFGQGTKLEIK ... 0.027

IN: Report koff for VH3 + VL1 (humanized 4451) (antibody, V domains shown, IgG expressed in HEK293) VH: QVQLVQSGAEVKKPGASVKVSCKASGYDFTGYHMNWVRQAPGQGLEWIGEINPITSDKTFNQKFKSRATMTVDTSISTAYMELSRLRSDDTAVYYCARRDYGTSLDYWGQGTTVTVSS VL: DIQLTQSPSFLSASVGDRVTITCRASKSISKYLAWYQQKPGKAPKLLIYAGSTLHSGVPSRFSGSGSGTEFTLTISSLQPEDFATYYCQQHNEYPITFGQGTKLEIK please.
OUT: 0.0294

IN: Report koff for VH1 + VL2 (humanized 4451) (antibody, V domains shown, IgG expressed in HEK293) VH: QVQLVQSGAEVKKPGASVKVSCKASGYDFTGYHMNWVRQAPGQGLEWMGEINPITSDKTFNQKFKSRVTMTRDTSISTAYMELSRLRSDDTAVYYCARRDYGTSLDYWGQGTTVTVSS VL: DIQLTQSPSFLSASVGDRVTITCRASKSISKYLAWYQQKPGKAPRLLIYAGSTLHSGVPSRFRGSGSGTEFTLTISSLQPEDFATYYCQQHNEYPITFGQGTKLEIK please.
OUT: 0.0239
